# Lookup of reported MIC keyed by entry
# Test system: K. pneumoniae H521 (KPC, SHV, TEM)
# protocol.description: Antibacterial activity, MIC by agar dilution (CLSI)
# Format: cell-based
# condition.set: Klebsiella pneumoniae, 18 h
Express the result in µg/mL but write the number alone.

For orientation, consider the following solved cases.
O=C(Cc1ccc(Cl)cc1)NNC(=O)[C@@H]1CC[C@@H]2CN1C(=O)N2OS(=O)(=O)O = 4
O=C(Cc1ccc(OC(=O)NC2CCCCC2)cc1)NNC(=O)[C@@H]1CC[C@@H]2CN1C(=O)N2OS(=O)(=O)O = 32

Per the records, this compound ( O=C(Cc1cccc(O)c1)NNC(=O)[C@@H]1CC[C@@H]2CN1C(=O)N2OS(=O)(=O)O ) has MIC equal to 1

---

# Tested on: E. coli NCTC 13353
# protocol.description: Zone of inhibition, compound alone and in combination with ceftazidime (agar well)
# Format: cell-based
# condition.set: Escherichia coli, NCTC13353, E. coli NCTC 13353; Compound + Ceftazidime (10 μg/ml); 0.5 μg/well; read-out: Diameter of Zone of Inhibition
# Lookup of reported zone of inhibition at 0.5 µg/disc keyed by entry

For orientation, consider the following solved cases.
NCCOc1ccccc1CC(=O)NNC(=O)[C@@H]1CC[C@@H]2CN1C(=O)N2OS(=O)(=O)O = 24 mm
NCc1ccc(CC(=O)NNC(=O)[C@@H]2CC[C@@H]3CN2C(=O)N3OS(=O)(=O)O)cc1 = 26 mm
C[C@@H](N)COc1ccccc1CC(=O)NNC(=O)[C@@H]1CC[C@@H]2CN1C(=O)N2OS(=O)(=O)O = 17.5 mm

Per the records, this molecule ( O=C(Cc1ccc(O)cc1)NNC(=O)[C@@H]1CC[C@@H]2CN1C(=O)N2OS(=O)(=O)[O-].[Na+] ) has zone of inhibition at 0.5 µg/disc equal to 21 mm

---

# Tested on: K. pneumoniae H521 (KPC, SHV, TEM)
# protocol.description: Antibacterial activity, MIC by agar dilution (CLSI)
# Type: cell-based
# condition.set: Klebsiella pneumoniae, 18 h, Table 2; K. pneumoniae H521 (KPC, SHV, TEM); read-out: MIC
# Text: The biological activity of representative compounds according to the invention against various bacterial strains was investigated. […] The strains selected for study included E. coli NCTC 13353 producing CTX-M15 and OXA-1 beta-lactamase enzymes; K. pneumoniae H521 producing KPC, SHV, TEM beta-lactamase enzymes; and K. pneumoniae S48 producing NDM, SHV, TEM beta-lactamase enzymes. The activities are expressed as Minimum Inhibitory Concentrations (MICs) (mcg/ml).
metric.name: MIC (µg/mL)
Express the result in µg/mL but write the number alone.

For orientation, consider the following solved cases.
O=C(Cc1ccc(O)cc1F)NNC(=O)[C@@H]1CC[C@@H]2CN1C(=O)N2OS(=O)(=O)O [Example 18] = 2
O=C(Cc1ccccc1O)NNC(=O)[C@@H]1CC[C@@H]2CN1C(=O)N2OS(=O)(=O)O [Example 19] = 2
N#Cc1ccc(CC(=O)NNC(=O)[C@@H]2CC[C@@H]3CN2C(=O)N3OS(=O)(=O)O)cc1 [Example 10] = 4
CC(C)(C)OC(=O)CC(=O)Oc1ccc(CC(=O)NNC(=O)[C@@H]2CC[C@@H]3CN2C(=O)N3OS(=O)(=O)O)cc1 [Example 26] = 4
CNCCOc1ccccc1CC(=O)NNC(=O)[C@@H]1CC[C@@H]2CN1C(=O)N2OS(=O)(=O)O [Example 36] = 2

Entry COc1ccc(CC(=O)NNC(=O)[C@@H]2CC[C@@H]3CN2C(=O)N3OS(=O)(=O)O)cc1 [Example 14] under K. pneumoniae H521 (KPC, SHV, TEM) had MIC of 8

Entry CNCCOc1cccc(CC(=O)NNC(=O)[C@@H]2CC[C@@H]3CN2C(=O)N3OS(=O)(=O)O)c1 [Example 37] under K. pneumoniae H521 (KPC, SHV, TEM) had MIC of 1

Entry CC(C)(C)C(=O)Oc1ccc(CC(=O)NNC(=O)[C@@H]2CC[C@@H]3CN2C(=O)N3OS(=O)(=O)O)cc1 [Example 22] under K. pneumoniae H521 (KPC, SHV, TEM) had MIC of 32
